Where do the numbers come from? From paper PMC6875038.

Assay: Pharmacokinetics of four ginsenosides in rat plasma after oral administration of PQ-AG and PQ extracts (UPLC-MS/MS)
Format: in vivo
Settings: PQ-AG group: oral PQ-AG extract 1.08 g/kg, male SD rats, n = 6, mean ± SD
# Cmax annotations
// note: answer is a bare numeric in ng/mL

Worked cases, answers included:
SMILES_RECORD | PARAMETER_MEASURED | RESULT
CC(C)=CCC[C@](C)(O[C@@H]1O[C@H](CO)[C@@H](O)[C@H](O)[C@H]1O)[C@H]1CC[C@]2(C)[C@@H]1[C@H](O)C[C@@H]1[C@@]3(C)CC[C@H](O[C@@H]4O[C@H](CO)[C@@H](O)[C@H](O)[C@H]4O[C@@H]4O[C@H](CO)[C@@H](O)[C@H](O)[C@H]4O)C(C)(C)[C@@H]3CC[C@]12C | Cmax | 283
CC(C)=CCC[C@](C)(O[C@@H]1O[C@H](CO[C@@H]2OC[C@H](O)[C@H](O)[C@H]2O)[C@@H](O)[C@H](O)[C@H]1O)[C@H]1CC[C@]2(C)[C@@H]1[C@H](O)C[C@@H]1[C@@]3(C)CC[C@H](O[C@@H]4O[C@H](CO)[C@@H](O)[C@H](O)[C@H]4O[C@@H]4O[C@H](CO)[C@@H](O)[C@H](O)[C@H]4O)C(C)(C)[C@@H]3CC[C@]12C | Cmax | 264
CC(C)=CCC[C@](C)(O[C@@H]1O[C@H](CO)[C@@H](O)[C@H](O)[C@H]1O)[C@H]1CC[C@]2(C)[C@@H]1[C@H](O)C[C@@H]1[C@@]3(C)CC[C@H](O)C(C)(C)[C@@H]3[C@@H](O[C@@H]3O[C@H](CO)[C@@H](O)[C@H](O)[C@H]3O[C@@H]3O[C@@H](C)[C@H](O)[C@@H](O)[C@H]3O)C[C@]12C | Cmax | 460

Please find the next molecule below.
Input line: Given CC(C)=CCC[C@](C)(O[C@@H]1O[C@H](CO[C@@H]2O[C@H](CO)[C@@H](O)[C@H](O)[C@H]2O)[C@@H](O)[C@H](O)[C@H]1O)[C@H]1CC[C@]2(C)[C@@H]1[C@H](O)C[C@@H]1[C@@]3(C)CC[C@H](O[C@@H]4O[C@H](CO)[C@@H](O)[C@H](O)[C@H]4O[C@@H]4O[C@H](CO)[C@@H](O)[C@H](O)[C@H]4O)C(C)(C)[C@@H]3CC[C@]12C , state its recorded Cmax.
Output line: 600

* * *

# Re (%) Postpreparation annotations
Experiment: Stability of the ginsenosides in rat plasma (QC samples)
Format: in vitro ADME
Conditions: extracted high QC (911.4 Rb1, 400.0 Rb2, 312.2 Rd, 630.8 Re ng/mL); autosampler 4°C for 12 h
// note: answer is a bare numeric in %

Input line: Given CC(C)=CCC[C@](C)(O[C@@H]1O[C@H](CO)[C@@H](O)[C@H](O)[C@H]1O)[C@H]1CC[C@]2(C)[C@@H]1[C@H](O)C[C@@H]1[C@@]3(C)CC[C@H](O[C@@H]4O[C@H](CO)[C@@H](O)[C@H](O)[C@H]4O[C@@H]4O[C@H](CO)[C@@H](O)[C@H](O)[C@H]4O)C(C)(C)[C@@H]3CC[C@]12C [Rd] , state its recorded Re (%) Postpreparation.
Output line: −7.02

Input line: Given CC(C)=CCC[C@](C)(O[C@@H]1O[C@H](CO[C@@H]2O[C@H](CO)[C@@H](O)[C@H](O)[C@H]2O)[C@@H](O)[C@H](O)[C@H]1O)[C@H]1CC[C@]2(C)[C@@H]1[C@H](O)C[C@@H]1[C@@]3(C)CC[C@H](O[C@@H]4O[C@H](CO)[C@@H](O)[C@H](O)[C@H]4O[C@@H]4O[C@H](CO)[C@@H](O)[C@H](O)[C@H]4O)C(C)(C)[C@@H]3CC[C@]12C [Rb1] , state its recorded Re (%) Postpreparation.
Output line: −6.47

Input line: Given CC(C)=CCC[C@](C)(O[C@@H]1O[C@H](CO[C@@H]2OC[C@H](O)[C@H](O)[C@H]2O)[C@@H](O)[C@H](O)[C@H]1O)[C@H]1CC[C@]2(C)[C@@H]1[C@H](O)C[C@@H]1[C@@]3(C)CC[C@H](O[C@@H]4O[C@H](CO)[C@@H](O)[C@H](O)[C@H]4O[C@@H]4O[C@H](CO)[C@@H](O)[C@H](O)[C@H]4O)C(C)(C)[C@@H]3CC[C@]12C [Rb2] , state its recorded Re (%) Postpreparation.
Output line: 7.90

Input line: Given CC(C)=CCC[C@](C)(O[C@@H]1O[C@H](CO)[C@@H](O)[C@H](O)[C@H]1O)[C@H]1CC[C@]2(C)[C@@H]1[C@H](O)C[C@@H]1[C@@]3(C)CC[C@H](O)C(C)(C)[C@@H]3[C@@H](O[C@@H]3O[C@H](CO)[C@@H](O)[C@H](O)[C@H]3O[C@@H]3O[C@@H](C)[C@H](O)[C@@H](O)[C@H]3O)C[C@]12C [Re] , state its recorded Re (%) Postpreparation.
Output line: 9.76

* * *

Test: Pharmacokinetics of four ginsenosides in rat plasma after oral administration of PQ-AG and PQ extracts (UPLC-MS/MS)
Format: in vivo
Conditions: male, SD, po, 0.54 g/kg, PQ group: oral PQ extract 0.54 g/kg, male SD rats, n = 6, mean ± SD, read-out: AUC0⟶t
PARAMETER_MEASURED: AUC (ng·h/mL)
// note: answer is a bare numeric in ng·h/mL

Input line: Given CC(C)=CCC[C@](C)(O[C@@H]1O[C@H](CO)[C@@H](O)[C@H](O)[C@H]1O)[C@H]1CC[C@]2(C)[C@@H]1[C@H](O)C[C@@H]1[C@@]3(C)CC[C@H](O)C(C)(C)[C@@H]3[C@@H](O[C@@H]3O[C@H](CO)[C@@H](O)[C@H](O)[C@H]3O[C@@H]3O[C@@H](C)[C@H](O)[C@@H](O)[C@H]3O)C[C@]12C , state its recorded AUC.
Output line: 2330

Input line: Given CC(C)=CCC[C@](C)(O[C@@H]1O[C@H](CO)[C@@H](O)[C@H](O)[C@H]1O)[C@H]1CC[C@]2(C)[C@@H]1[C@H](O)C[C@@H]1[C@@]3(C)CC[C@H](O[C@@H]4O[C@H](CO)[C@@H](O)[C@H](O)[C@H]4O[C@@H]4O[C@H](CO)[C@@H](O)[C@H](O)[C@H]4O)C(C)(C)[C@@H]3CC[C@]12C , state its recorded AUC.
Output line: 3010

Input line: Given CC(C)=CCC[C@](C)(O[C@@H]1O[C@H](CO[C@@H]2OC[C@H](O)[C@H](O)[C@H]2O)[C@@H](O)[C@H](O)[C@H]1O)[C@H]1CC[C@]2(C)[C@@H]1[C@H](O)C[C@@H]1[C@@]3(C)CC[C@H](O[C@@H]4O[C@H](CO)[C@@H](O)[C@H](O)[C@H]4O[C@@H]4O[C@H](CO)[C@@H](O)[C@H](O)[C@H]4O)C(C)(C)[C@@H]3CC[C@]12C , state its recorded AUC.
Output line: 1210

Input line: Given CC(C)=CCC[C@](C)(O[C@@H]1O[C@H](CO[C@@H]2O[C@H](CO)[C@@H](O)[C@H](O)[C@H]2O)[C@@H](O)[C@H](O)[C@H]1O)[C@H]1CC[C@]2(C)[C@@H]1[C@H](O)C[C@@H]1[C@@]3(C)CC[C@H](O[C@@H]4O[C@H](CO)[C@@H](O)[C@H](O)[C@H]4O[C@@H]4O[C@H](CO)[C@@H](O)[C@H](O)[C@H]4O)C(C)(C)[C@@H]3CC[C@]12C , state its recorded AUC.
Output line: 5980

* * *

# Recovery (%) Freeze-thaw cycles annotations
Assay: Stability of the ginsenosides in rat plasma (QC samples)
Type: in vitro ADME
Settings: rat plasma, high QC (911.4 Rb1, 400.0 Rb2, 312.2 Rd, 630.8 Re ng/mL); three freeze-thaw cycles at −80°C
// note: answer is a bare numeric in %

Worked cases, answers included:
COMPOUND | OUTPUT_UNIT | RESULT
CC(C)=CCC[C@](C)(O[C@@H]1O[C@H](CO)[C@@H](O)[C@H](O)[C@H]1O)[C@H]1CC[C@]2(C)[C@@H]1[C@H](O)C[C@@H]1[C@@]3(C)CC[C@H](O[C@@H]4O[C@H](CO)[C@@H](O)[C@H](O)[C@H]4O[C@@H]4O[C@H](CO)[C@@H](O)[C@H](O)[C@H]4O)C(C)(C)[C@@H]3CC[C@]12C [Rd] | % | 102.00
CC(C)=CCC[C@](C)(O[C@@H]1O[C@H](CO[C@@H]2OC[C@H](O)[C@H](O)[C@H]2O)[C@@H](O)[C@H](O)[C@H]1O)[C@H]1CC[C@]2(C)[C@@H]1[C@H](O)C[C@@H]1[C@@]3(C)CC[C@H](O[C@@H]4O[C@H](CO)[C@@H](O)[C@H](O)[C@H]4O[C@@H]4O[C@H](CO)[C@@H](O)[C@H](O)[C@H]4O)C(C)(C)[C@@H]3CC[C@]12C [Rb2] | % | 103.82
CC(C)=CCC[C@](C)(O[C@@H]1O[C@H](CO)[C@@H](O)[C@H](O)[C@H]1O)[C@H]1CC[C@]2(C)[C@@H]1[C@H](O)C[C@@H]1[C@@]3(C)CC[C@H](O)C(C)(C)[C@@H]3[C@@H](O[C@@H]3O[C@H](CO)[C@@H](O)[C@H](O)[C@H]3O[C@@H]3O[C@@H](C)[C@H](O)[C@@H](O)[C@H]3O)C[C@]12C [Re] | % | 97.39

Please find the next compound below.
Input line: Given CC(C)=CCC[C@](C)(O[C@@H]1O[C@H](CO[C@@H]2O[C@H](CO)[C@@H](O)[C@H](O)[C@H]2O)[C@@H](O)[C@H](O)[C@H]1O)[C@H]1CC[C@]2(C)[C@@H]1[C@H](O)C[C@@H]1[C@@]3(C)CC[C@H](O[C@@H]4O[C@H](CO)[C@@H](O)[C@H](O)[C@H]4O[C@@H]4O[C@H](CO)[C@@H](O)[C@H](O)[C@H]4O)C(C)(C)[C@@H]3CC[C@]12C [Rb1] , state its recorded Recovery (%) Freeze-thaw cycles.
Output line: 101.95
